measured.target: UniProtKB Q13547
Sequence (Q13547 whole entry): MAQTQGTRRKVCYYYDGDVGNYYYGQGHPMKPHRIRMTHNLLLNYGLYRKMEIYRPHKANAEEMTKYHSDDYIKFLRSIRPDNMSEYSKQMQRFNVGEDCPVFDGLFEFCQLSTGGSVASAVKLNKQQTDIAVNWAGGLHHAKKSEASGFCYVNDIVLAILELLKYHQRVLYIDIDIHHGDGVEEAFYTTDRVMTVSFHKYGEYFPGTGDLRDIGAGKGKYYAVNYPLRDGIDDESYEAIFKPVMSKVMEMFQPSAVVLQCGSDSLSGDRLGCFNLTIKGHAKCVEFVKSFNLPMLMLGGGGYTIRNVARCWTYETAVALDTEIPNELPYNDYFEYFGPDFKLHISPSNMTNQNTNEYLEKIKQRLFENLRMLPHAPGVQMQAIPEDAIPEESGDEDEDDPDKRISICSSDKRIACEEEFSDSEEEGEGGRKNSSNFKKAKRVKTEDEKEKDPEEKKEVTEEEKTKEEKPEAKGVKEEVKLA
assay.name: Inhibition of recombinant full-length human C-terminal FLAG-His-tagged HDAC1 expressed in baculovirus infected Sf9 insect cells using Boc-L-Lys(Ac)-AMC as substrate preincubated for 5 mins followed by substrate addition measured after 35 mins by fluorescence assay
pIC50: −log10 of the molar value.
Lab note: compare pIC50 against 5. Equal or greater, write rule met. Smaller, write rule not met.

# molecule, measured.target, category
data = [
    ("O=C(CCCCN1CCc2ccccc2C1c1ccccc1)NO (configuration not stated)", "UniProtKB Q13547", "rule met"),
    ("O=C(CCN1CCc2ccccc2C1c1ccc2ccccc2c1)NO (configuration not stated)", "UniProtKB Q13547", "rule met"),
    ("O=C(CCCCNCc1ccccc1)NO", "UniProtKB Q13547", "rule not met"),
    ("COc1ccc(C2c3ccccc3CCN2CCC(=O)NO)cc1 (configuration not stated)", "UniProtKB Q13547", "rule not met"),
    ("O=C(CCN(Cc1ccccc1)Cc1ccccc1)NO", "UniProtKB Q13547", "rule not met"),
    ("O=C(CCN1CCc2ccccc2C1C1CCCCC1)NO (configuration not stated)", "UniProtKB Q13547", "rule not met"),
    ("O=C(CCN1CCc2ccccc2C1c1ccc(C(F)(F)F)cc1)NO (configuration not stated)", "UniProtKB Q13547", "rule not met"),
]

====

measured.target: Histone deacetylase 3/Nuclear receptor corepressor 2 (HDAC3/NCoR2) (Homo sapiens, UniProt O15379)
Sequence (O15379 whole entry, the tested form may be a part): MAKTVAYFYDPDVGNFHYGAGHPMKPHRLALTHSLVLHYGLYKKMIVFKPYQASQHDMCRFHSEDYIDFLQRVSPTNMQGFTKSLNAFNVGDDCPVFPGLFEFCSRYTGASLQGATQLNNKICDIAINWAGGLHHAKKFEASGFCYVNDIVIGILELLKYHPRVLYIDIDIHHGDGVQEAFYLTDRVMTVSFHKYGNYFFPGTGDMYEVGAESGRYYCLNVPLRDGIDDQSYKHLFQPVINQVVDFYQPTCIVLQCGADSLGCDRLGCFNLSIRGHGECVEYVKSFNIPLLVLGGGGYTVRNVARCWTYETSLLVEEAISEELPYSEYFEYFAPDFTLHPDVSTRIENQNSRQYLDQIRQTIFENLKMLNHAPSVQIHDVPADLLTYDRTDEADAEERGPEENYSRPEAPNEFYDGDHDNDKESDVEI
Sequence (Q9Y618 whole entry, further chain, the tested form may be a part): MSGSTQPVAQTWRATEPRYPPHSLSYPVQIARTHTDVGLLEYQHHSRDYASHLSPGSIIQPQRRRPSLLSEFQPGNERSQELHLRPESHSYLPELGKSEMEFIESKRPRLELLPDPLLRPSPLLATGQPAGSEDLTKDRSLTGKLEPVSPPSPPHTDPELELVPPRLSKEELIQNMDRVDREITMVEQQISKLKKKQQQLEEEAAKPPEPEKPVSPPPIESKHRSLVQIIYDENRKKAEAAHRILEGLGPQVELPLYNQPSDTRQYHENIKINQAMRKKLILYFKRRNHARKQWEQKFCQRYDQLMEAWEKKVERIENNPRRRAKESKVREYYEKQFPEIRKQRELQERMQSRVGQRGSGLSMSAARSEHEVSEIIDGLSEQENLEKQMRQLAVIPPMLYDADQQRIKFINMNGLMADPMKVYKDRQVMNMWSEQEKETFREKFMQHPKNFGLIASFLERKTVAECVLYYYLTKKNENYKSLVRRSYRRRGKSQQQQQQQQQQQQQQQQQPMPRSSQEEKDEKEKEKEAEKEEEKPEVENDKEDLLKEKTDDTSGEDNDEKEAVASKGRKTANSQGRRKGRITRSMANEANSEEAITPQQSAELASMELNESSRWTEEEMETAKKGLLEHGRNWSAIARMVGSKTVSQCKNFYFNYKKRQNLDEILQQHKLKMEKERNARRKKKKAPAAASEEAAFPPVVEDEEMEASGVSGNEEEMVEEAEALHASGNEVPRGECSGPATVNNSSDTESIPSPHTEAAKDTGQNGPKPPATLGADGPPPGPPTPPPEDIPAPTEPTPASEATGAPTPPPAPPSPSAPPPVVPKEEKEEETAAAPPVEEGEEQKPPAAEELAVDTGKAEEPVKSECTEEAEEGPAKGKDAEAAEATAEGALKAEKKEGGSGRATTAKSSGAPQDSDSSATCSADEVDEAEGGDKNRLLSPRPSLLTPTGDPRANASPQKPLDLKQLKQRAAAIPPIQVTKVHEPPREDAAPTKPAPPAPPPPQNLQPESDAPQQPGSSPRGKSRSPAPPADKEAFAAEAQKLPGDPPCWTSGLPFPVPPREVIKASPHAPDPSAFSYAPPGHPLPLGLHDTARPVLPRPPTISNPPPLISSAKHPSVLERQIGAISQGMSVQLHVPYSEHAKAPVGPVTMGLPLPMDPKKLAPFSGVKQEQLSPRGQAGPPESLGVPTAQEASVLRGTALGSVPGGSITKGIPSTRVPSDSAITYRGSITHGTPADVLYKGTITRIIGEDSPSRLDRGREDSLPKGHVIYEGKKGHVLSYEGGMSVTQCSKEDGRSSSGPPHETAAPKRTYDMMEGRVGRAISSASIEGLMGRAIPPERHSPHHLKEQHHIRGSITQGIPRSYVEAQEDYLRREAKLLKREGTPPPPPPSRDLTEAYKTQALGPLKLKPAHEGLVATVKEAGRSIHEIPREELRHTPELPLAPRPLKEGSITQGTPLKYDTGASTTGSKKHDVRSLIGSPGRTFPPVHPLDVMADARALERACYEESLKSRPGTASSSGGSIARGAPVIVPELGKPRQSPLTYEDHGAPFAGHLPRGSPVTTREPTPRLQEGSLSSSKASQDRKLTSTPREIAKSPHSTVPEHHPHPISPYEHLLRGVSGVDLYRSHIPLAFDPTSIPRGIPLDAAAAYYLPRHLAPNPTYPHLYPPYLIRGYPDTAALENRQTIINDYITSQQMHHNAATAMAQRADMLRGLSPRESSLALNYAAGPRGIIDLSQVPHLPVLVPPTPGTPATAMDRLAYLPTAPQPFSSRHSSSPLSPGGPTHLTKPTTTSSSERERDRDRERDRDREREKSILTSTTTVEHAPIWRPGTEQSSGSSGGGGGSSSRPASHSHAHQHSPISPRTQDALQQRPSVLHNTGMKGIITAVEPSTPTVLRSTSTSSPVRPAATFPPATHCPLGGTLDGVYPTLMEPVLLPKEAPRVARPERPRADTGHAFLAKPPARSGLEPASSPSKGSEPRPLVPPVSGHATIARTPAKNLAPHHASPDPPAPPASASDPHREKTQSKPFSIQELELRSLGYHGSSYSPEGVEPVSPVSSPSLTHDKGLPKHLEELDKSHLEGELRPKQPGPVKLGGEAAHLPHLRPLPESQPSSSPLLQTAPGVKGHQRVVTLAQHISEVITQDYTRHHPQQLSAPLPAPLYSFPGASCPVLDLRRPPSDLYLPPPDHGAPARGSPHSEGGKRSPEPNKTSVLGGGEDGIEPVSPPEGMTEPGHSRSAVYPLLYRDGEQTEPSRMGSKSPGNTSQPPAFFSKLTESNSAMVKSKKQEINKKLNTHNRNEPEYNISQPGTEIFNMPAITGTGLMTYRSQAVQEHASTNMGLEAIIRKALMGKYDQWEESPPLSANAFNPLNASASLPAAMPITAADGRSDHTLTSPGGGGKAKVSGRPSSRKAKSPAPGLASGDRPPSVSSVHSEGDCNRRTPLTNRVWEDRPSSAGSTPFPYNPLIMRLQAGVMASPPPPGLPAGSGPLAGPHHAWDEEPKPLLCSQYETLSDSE
assay.name: Inhibition of recombinant human full-length C-terminal His-tagged HDAC3 (395 to 489 residues)/human NCOR2 expressed in baculovirus infected Sf9 insect cells using Boc-L-Lys(Ac)-AMC as substrate pretreated for 5 mins followed by substrate addition measured after 35 mins by fluorescence assay
pIC50: −log10 of the molar value.
Listed below: pIC50 values for each entry.
reported.metric: pIC50

# compound, reported.metric, comparative.sign, reported.value
measured = [
    ("CCOc1ccc(C2c3ccccc3CCN2CCC(=O)NO)cc1 (stereo unspecified)", "pIC50", "<", 4.00),
    ("O=C(CCN1CCc2ccccc2C1)NO", "pIC50", "=", 4.01),
    ("O=C(CCCCN1CCc2ccccc2C1c1ccccc1)NO (stereo unspecified)", "pIC50", "=", 6.09),
    ("COc1ccc(C2c3ccccc3CCN2CCC(=O)NO)cc1 (stereo unspecified)", "pIC50", "<", 4.00),
    ("O=C(CCN1CCc2ccccc2C1c1cccc(C(F)(F)F)c1)NO (stereo unspecified)", "pIC50", "<", 4.00),
    ("O=C(CCN1CCc2ccccc2C1c1ccc(C(F)(F)F)cc1)NO (stereo unspecified)", "pIC50", "=", 4.57),
]

====

Species: Homo sapiens
assay.name: Selectivity ratio of IC50 for recombinant full-length human C-terminal FLAG-His-tagged HDAC1 expressed in baculovirus infected Sf9 insect cells to IC50 for recombinant HDAC8 (unknown origin) expressed in Escherichia coli
Listed below: Ratio IC50 values for each entry.

# compound, Ratio IC50
rows = [
    ("O=C(CCN1CCc2ccccc2C1c1ccc(-c2ccccc2)cc1)NO (centres undefined)", 135),
    ("O=C(CCN(Cc1ccccc1)Cc1ccccc1)NO", 24),
    ("COc1ccc(C2c3ccccc3CCN2CCC(=O)NO)cc1 (centres undefined)", 330),
    ("O=C(CCCCN1CCc2ccccc2C1c1ccccc1)NO (centres undefined)", 18),
]
